From: patent US9206432B2

# Tested on: lacZ under control of the tetA promoter (PtetA) in E. coli KM3
# Assay type: cell-based
# condition.context: Table 6, reverse repressor hits; ethametsulfuron, same plate assay format (20 ppm)
readout.label: relative β-galactosidase activity, inducer Es
Write no unit; give the number alone.

Some solved cases for reference:
{"columns": ["molecule", "observed"],
 "data": [
  ["L1-18: library L1 hit with reverse repressor activity (SEQ ID NO: 1206-1213) (protein, rSuR L1-18) MGSRLDKSKVINSALELLNEVGIEGLTTRKLAQKLGVEQPTLYWHVKNKRALLDALAIEMLDRHLTHFCPLEGESWQDFLRNNAKSMRCALLSHRDGAKVWLGTGFTEKQYETKENRLAFLCQQGFSLENALYAIRAVSRFTLGCVLQDQEPQVAKEERETPTTDSMPPLLRQAVELFDHQGAEPAFLFGLELIICGLEKQLKCESES", 0.37],
  ["L1-34: library L1 hit with reverse repressor activity (SEQ ID NO: 1206-1213) (protein, rSuR L1-34) MGSRLDKSKVINSALELLNEVGIEGLTTRKLAQKLGVEQPTLYWHVKNKRALLDALAIEMADRHNTHFCPLEGESWQDFLRNAARSMRCALLSHRDGAKVYLGTARTEKQYETTENVLAFLCQQGFSLENALYAVRAVPRFTLGCVLLDQERQVAKEERETPTTDSMPPLLRQARELTDHQGAEPAFLFGLELIICGLEKQLKCESGS", 1.33]
]}

Consider the record given below.
*Q* Can you share its relative β-galactosidase activity, inducer Es? I mean this molecule: L1-25: library L1 hit with reverse repressor activity (SEQ ID NO: 1206-1213) (protein, rSuR L1-25) MGSRLDKSKVINSALELLNEVGIEGLTTRKLAQKLGVEQPTLYWHVKNKRALLDALAIEMLDRHATHFCPLEGESWQDFLRNTAKSMRCALLSHRDGAKVLLGTATTEKQYETLENLLAFLYQQGFSLENALYAWQAVWRFTLGCVLIDQETQVAKEERETPTTDSMPPLLRQAVELKDHQGAEPAFLFGLELIICGLEKQLKCETGS
*A* 0.13
